Hello, the source for this data is patent US20220363754A1, in case you need it.

Molecular target: T1, recombinant protein hTIGIT-ECD-mFC (human; mouse, UniProt Q495A1 24-155)
T1 construct: range 24-155; Expressed in 293E cells; also called human TIGIT-ECD-mFc; not shown: murine IgG2a Fc domain of the vector MX2-mFc
T1 sequence (looked up): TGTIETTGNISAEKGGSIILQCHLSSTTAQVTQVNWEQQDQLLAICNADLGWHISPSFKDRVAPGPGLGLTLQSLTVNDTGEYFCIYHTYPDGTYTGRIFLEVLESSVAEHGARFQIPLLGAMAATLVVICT
Assay: ELISA, human TIGIT-ECD-mFc coated at 0.5 ug/mL, anti-IgG4-HRP
endpoint-label: EC50 (ng/mL)
Answers are plain numbers, in ng/mL.

Answer for every listed entry: what is its EC50? The entries follow.
1. humanized antibody hu62 (antibody, V domains shown, Humanized from 23O20; detected with anti-IgG4-HRP in the ELISA, constant regions not otherwise stated) VH: QVQLVQSGAEVKKPGASVKVSCKASGYTFTNYWILWIRQAPGQGLEWMGDIYPGGHYTNYNEKFQGRVTLTADTSSSTAYMELSSLRSEDTAVYYCTRYYGPYAMDYWGQGTLVTVSS VL: DIQMTQSPSSLSASVGDRVTITCRSSQSLLYNSNQKNYLAWYQQKPGKAPKLLIYWASTGESGVPSRFSGSGSGTDFTLTISSLQPEDFATYYCQQYYSYPFTFGQGTKVEIK
2. humanized antibody hu81 (antibody, V domains shown, Humanized from 23O20; detected with anti-IgG4-HRP in the ELISA, constant regions not otherwise stated) VH: QVQLVQSGAEVKKPGASVKVSCKASGYTFTNYWILWIRQAPGQGLEWMGDIYPGGHYTNYNEKLQGRVTLTADTSSSTAYMELRSLRSDDTAVYYCTRYYGPYAMDYWGQGTLVTVSS VL: DIVMTQSPLSLPVTPGEPASISCRSSQSLLYNSNQKNYLAWYLQKPGQSPQLLIYWASTGESGVPDRFSGSGSGTDFTLKISRVEAEDVGVYYCQQYYSYPFTFGQGTKVEIK

1. 8.6
2. 9.83
